Field: log2 fold change of degron read counts. Provide a value for each of the sequences that follow.
Target: T1, CRBN, Q96SW2;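 note: pooled lentiviral library of zinc finger degron-EGFP fusions in mCherry-positive Jurkat cells, FACS-sorted after compound exposure, with degron abundance counted by next-generation sequencing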
T1 chain: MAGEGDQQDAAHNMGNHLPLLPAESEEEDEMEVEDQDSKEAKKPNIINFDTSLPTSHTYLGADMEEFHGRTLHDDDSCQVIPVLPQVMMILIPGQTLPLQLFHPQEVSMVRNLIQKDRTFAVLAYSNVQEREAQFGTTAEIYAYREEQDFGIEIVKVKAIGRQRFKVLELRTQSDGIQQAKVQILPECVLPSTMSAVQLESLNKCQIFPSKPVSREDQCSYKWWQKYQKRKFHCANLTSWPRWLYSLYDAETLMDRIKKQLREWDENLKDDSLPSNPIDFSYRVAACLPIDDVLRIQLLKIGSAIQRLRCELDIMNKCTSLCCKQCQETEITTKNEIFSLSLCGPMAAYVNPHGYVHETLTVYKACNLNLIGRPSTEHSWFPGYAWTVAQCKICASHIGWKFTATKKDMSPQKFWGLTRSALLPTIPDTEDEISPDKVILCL
Assay: log2 fold change of degron read counts, EGFP-low vs EGFP+ sorted cells (limma voom), compound-induced degradation; higher = more compound-induced degradation of the degron-EGFP fusion; degrons are variants of IKZF1/3 zinc finger 2; compound dose not given here
Details: Jurkat; 18 h; compound: compound 22 (5-morpholino-thalidomide)
Whole data set: some 8,300 sequences, median “log2 fold change of degron read counts, EGFP-low vs EGFP+ sorted cells (limma voom), compound-induced degradation” near -1.1, cut for the highest 2% near 3.2. The full list was thinned out, with the highest values kept by preference.
Answers are plain numbers.

# input Would you mind telling me what log2 fold change of degron read counts value was observed for LMCPICGFECTQKGNLLRHIKL [46L_47M_49P_50I_52G_53F_54E_55C_67L_, Q9UKT9] ?
# output 0.39

Quick one: give me log2 fold change of degron read counts for each item below, same order please.
1. LQCPICGFECTQKGNLLRHIKL [46L_47Q_49P_50I_52G_53F_54E_55C_67L_, Q9UKT9]
2. LSCPICGFRCTQKGNLLRHIKL [46L_47S_49P_50I_52G_53F_54R_55C_67L_, Q9UKT9]
3. LHCPICGFRCTQKGNLLRHIKL [46L_47H_49P_50I_52G_53F_54R_55C_67L_, Q9UKT9]
4. FRCEICGAHFTQKGNLLRHIKL [46F_47R_49E_50I_52G_53A_54H_55F_67L_, Q9UKT9]
5. LNCPICGFRCTQKGNLLRHIKL [46L_47N_49P_50I_52G_53F_54R_55C_67L_, Q9UKT9]
6. LCCPICGFPCTQKGNLLRHIKL [46L_47C_49P_50I_52G_53F_54P_55C_67L_, Q9UKT9]

# output
1. 1.29
2. 2.57
3. 2.4
4. -0.83
5. 0.801
6. 1.08
